# Target System: HDAC4 catalytic domain (wild type) (Homo sapiens)
# Construct: we purified the recombinant catalytic domains of HDACs 4, 5, 7, and 9; hexa-histidine tag (N, cleaved yes); S-tag (N, cleaved yes); made in house; host or cells: Escherichia coli Rosetta (pET30)
# Sequence (P56524 655-1084 limits assumed): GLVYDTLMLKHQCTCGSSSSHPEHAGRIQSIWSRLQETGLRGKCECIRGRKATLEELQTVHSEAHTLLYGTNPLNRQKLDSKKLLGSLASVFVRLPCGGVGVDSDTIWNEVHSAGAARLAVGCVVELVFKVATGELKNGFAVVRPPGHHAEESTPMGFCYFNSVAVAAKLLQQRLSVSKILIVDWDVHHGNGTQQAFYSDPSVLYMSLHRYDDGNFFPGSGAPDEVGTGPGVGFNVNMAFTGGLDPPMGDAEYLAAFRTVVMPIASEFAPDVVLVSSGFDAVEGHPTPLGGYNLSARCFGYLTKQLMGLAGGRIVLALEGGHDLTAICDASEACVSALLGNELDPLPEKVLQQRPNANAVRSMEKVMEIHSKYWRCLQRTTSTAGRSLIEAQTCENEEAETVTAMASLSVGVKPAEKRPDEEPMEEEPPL
# Assay Info: Fluorescence anisotropy binding of BODIPY-TMR labeled GSI motif peptides to HDAC4
# Condition Set: Fig. 4A; wild type HDAC4 catalytic domain preincubated 30 min with 2-fold molar excess of the named inhibitor; Kd is that of the labeled GSI peptide; read-out: WT Kd of the GSI peptide in the presence of the HDAC inhibitor
Reported Property: Kd (µM)
Report the figure in µM without appending any unit label.

CCCC(=O)[O-].[Na+] [Sodium Butyrate, sodium butyrate, reference compound] yielded Kd of 4.61
